molecular target: HLA-A*02:01 (Homo sapiens, UniProt P04439, D140Y/D185E/D98H/E176V/E277Q/G131W/G231S/I119V/I121R/I166T/I218V/L300P/L318F/N151K/N90K/P208A/P217A/Q86G/Q94H/R138H/R169H/T345S); assay: MHC binding assay (UV-ligand exchange, beta2m ELISA, peptide exchange yield); conditions: binding to HLA-A*02:01
MEASURED_METRIC: Peptide exchange (MHC class I binding score, peptide exchange yield)

SUBSTANCE	RESULT
149 (YQFDKVGILTL; listed as Homo sapiens) [compound 149]	“+++” (≥50 = +++)
34 (ILLEKSVSV; listed as Homo sapiens) [compound 34]	“+++” (≥50 = +++)
87 (LLFDAPDLRL; listed as Homo sapiens) [compound 87]	“+++” (≥50 = +++)

###

molecular target: HLA-A*02:01 (Homo sapiens, UniProt P04439, D140Y/D185E/D98H/E176V/E277Q/G131W/G231S/I119V/I121R/I166T/I218V/L300P/L318F/N151K/N90K/P208A/P217A/Q86G/Q94H/R138H/R169H/T345S); test: MHC binding assay (UV-ligand exchange, beta2m ELISA, peptide exchange yield); details: binding to HLA-A*02:01
MEASURED_METRIC: Peptide exchange (MHC class I binding score, peptide exchange yield)

Here's what some known entries look like.
SUBSTANCE	RESULT
72 (YLLDYPNNLL; listed as Homo sapiens) [compound 72]	“+++” (≥50 = +++)
69 (GMLNEAEGKAIKL; listed as Homo sapiens) [compound 69]	“++” (≥20% = ++)
74 (YLMGFLHAV; listed as Homo sapiens) [compound 74]	“+++” (≥50 = +++)
13 (FLLAEDTKV; listed as Homo sapiens) [compound 13]	“+++” (≥50 = +++)
60 (VLDEDEPRFL; listed as Homo sapiens) [compound 60]	“++” (≥20% = ++)
129 (VLIDVLKEL; listed as Homo sapiens) [compound 129]	“+++” (≥50 = +++)
171 (RLQETEGMVAV; listed as Homo sapiens) [compound 171]	“++” (≥20% = ++)
92 (WIDDTSAFV; listed as Homo sapiens) [compound 92]	“+++” (≥50 = +++)

Input 61 (KLLKLFQGV; listed as Homo sapiens) [compound 61] , output reported Peptide exchange (MHC class I binding score, peptide exchange yield).
“+++” (≥50 = +++)

Input 11 (YLFEKTFNM; listed as Homo sapiens) [compound 11] , output reported Peptide exchange (MHC class I binding score, peptide exchange yield).
“+++” (≥50 = +++)

Input 140 (LLNEILEQV; listed as Homo sapiens) [compound 140] , output reported Peptide exchange (MHC class I binding score, peptide exchange yield).
“+++” (≥50 = +++)

Input 103 (FLFGYPKRL; listed as Homo sapiens) [compound 103] , output reported Peptide exchange (MHC class I binding score, peptide exchange yield).
“++” (≥20% = ++)

Input 59 (LLTDNVVKL; listed as Homo sapiens) [compound 59] , output reported Peptide exchange (MHC class I binding score, peptide exchange yield).
“+++” (≥50 = +++)

Input 155 (RLLGEEVVRV; listed as Homo sapiens) [compound 155] , output reported Peptide exchange (MHC class I binding score, peptide exchange yield).
“+++” (≥50 = +++)

Input 189 (AISEVIGKITA; listed as Homo sapiens) [compound 189] , output reported Peptide exchange (MHC class I binding score, peptide exchange yield).
“+++” (≥50 = +++)

###

target: HLA-A*02:01 (Homo sapiens, UniProt P04439, D140Y/D185E/D98H/E176V/E277Q/G131W/G231S/I119V/I121R/I166T/I218V/L300P/L318F/N151K/N90K/P208A/P217A/Q86G/Q94H/R138H/R169H/T345S); test: MHC binding assay (UV-ligand exchange, beta2m ELISA, peptide exchange yield); conditions: binding to HLA-A*02:01
MEASURED_METRIC: Peptide exchange (MHC class I binding score, peptide exchange yield)

SUBSTANCE	RESULT
160 (KLLEFDQLQL; listed as Homo sapiens) [compound 160]	“+++” (≥50 = +++)
94 (KSMDIVLTV; listed as Homo sapiens) [compound 94]	“+++” (≥50 = +++)
97 (ALWWGVVTV; listed as Homo sapiens) [compound 97]	“++” (≥20% = ++)
99 (KLLEVDLDTV; listed as Homo sapiens) [compound 99]	“+++” (≥50 = +++)
133 (RTFEKIEEV; listed as Homo sapiens) [compound 133]	“++” (≥20% = ++)
91 (TVDVATPSV; listed as Homo sapiens) [compound 91]	“+++” (≥50 = +++)
19 (RLYTKLLNEA; listed as Homo sapiens) [compound 19]	“+++” (≥50 = +++)
131 (KLLDVVHPA; listed as Homo sapiens) [compound 131]	“++” (≥20% = ++)

Input 68 (SILQFVHMV; listed as Homo sapiens) [compound 68] , output reported Peptide exchange (MHC class I binding score, peptide exchange yield).
“+++” (≥50 = +++)

###

target: HLA-A*02:01 (Homo sapiens, UniProt P04439, D140Y/D185E/D98H/E176V/E277Q/G131W/G231S/I119V/I121R/I166T/I218V/L300P/L318F/N151K/N90K/P208A/P217A/Q86G/Q94H/R138H/R169H/T345S); test: MHC binding assay (UV-ligand exchange, beta2m ELISA, peptide exchange yield); settings: binding to HLA-A*02:01
MEASURED_METRIC: Peptide exchange (MHC class I binding score, peptide exchange yield)

SUBSTANCE	RESULT
67 (SLNDLEKDVMLL; listed as Homo sapiens) [compound 67]	“+++” (≥50 = +++)
81 (ALLSQQTHL; listed as Homo sapiens) [compound 81]	“+++” (≥50 = +++)
143 (KLSDVWKEL; listed as Homo sapiens) [compound 143]	“+++” (≥50 = +++)
154 (KLPSETIFVGC; listed as Homo sapiens) [compound 154]	“+++” (≥50 = +++)

###

molecular target: HLA-A*02:01 (Homo sapiens, UniProt P04439, D140Y/D185E/D98H/E176V/E277Q/G131W/G231S/I119V/I121R/I166T/I218V/L300P/L318F/N151K/N90K/P208A/P217A/Q86G/Q94H/R138H/R169H/T345S); experiment: MHC binding assay (UV-ligand exchange, beta2m ELISA, peptide exchange yield); settings: binding to HLA-A*02:01
MEASURED_METRIC: Peptide exchange (MHC class I binding score, peptide exchange yield)

Here's what some known entries look like.
SUBSTANCE	RESULT
25 (SLADRLIGV; listed as Homo sapiens) [compound 25]	“++++” (≥75% = ++++)
106 (SLISEKILL; listed as Homo sapiens) [compound 106]	“+++” (≥50 = +++)
144 (LLNDRIWLA; listed as Homo sapiens) [compound 144]	“+++” (≥50 = +++)
135 (KLQEEIPVL; listed as Homo sapiens) [compound 135]	“++” (≥20% = ++)

Input 151 (SAQGSDVSLTACKV; listed as Homo sapiens) [compound 151] , output reported Peptide exchange (MHC class I binding score, peptide exchange yield).
“+++” (≥50 = +++)

Input 120 (VLYEGVDEV; listed as Homo sapiens) [compound 120] , output reported Peptide exchange (MHC class I binding score, peptide exchange yield).
“++” (≥20% = ++)

Input 101 (GLSEGHTFQV; listed as Homo sapiens) [compound 101] , output reported Peptide exchange (MHC class I binding score, peptide exchange yield).
“+++” (≥50 = +++)

###

target: HLA-A*02:01 (Homo sapiens, UniProt P04439, D140Y/D185E/D98H/E176V/E277Q/G131W/G231S/I119V/I121R/I166T/I218V/L300P/L318F/N151K/N90K/P208A/P217A/Q86G/Q94H/R138H/R169H/T345S); test: MHC binding assay (UV-ligand exchange, beta2m ELISA, peptide exchange yield); conditions: binding to HLA-A*02:01
MEASURED_METRIC: Peptide exchange (MHC class I binding score, peptide exchange yield)

Here's what some known entries look like.
SUBSTANCE	RESULT
112 (KLGQVLIYL; listed as Homo sapiens) [compound 112]	“++” (≥20% = ++)
130 (GLGGSQLIDTHL; listed as Homo sapiens) [compound 130]	“++” (≥20% = ++)
117 (TLQPVDNSTISL; listed as Homo sapiens) [compound 117]	“++” (≥20% = ++)
115 (SLFDVSHML; listed as Homo sapiens) [compound 115]	“+++” (≥50 = +++)
174 (ILLDDNMQIRL; listed as Homo sapiens) [compound 174]	“++++” (≥75% = ++++)

Input 147 (TLTELRAFL; listed as Homo sapiens) [compound 147] , output reported Peptide exchange (MHC class I binding score, peptide exchange yield).
“++++” (≥75% = ++++)

Input 184 (SLLDENNVSSYL; listed as Homo sapiens) [compound 184] , output reported Peptide exchange (MHC class I binding score, peptide exchange yield).
“+++” (≥50 = +++)

Input 77 (SLLKRDFGA; listed as Homo sapiens) [compound 77] , output reported Peptide exchange (MHC class I binding score, peptide exchange yield).
“++” (≥20% = ++)

Input 58 (AMADKMDMSL; listed as Homo sapiens) [compound 58] , output reported Peptide exchange (MHC class I binding score, peptide exchange yield).
“++” (≥20% = ++)

Input 47 (KLYERCEVV; listed as Homo sapiens) [compound 47] , output reported Peptide exchange (MHC class I binding score, peptide exchange yield).
“++” (≥20% = ++)

Input 6 (FLAELPGSLSL; listed as Homo sapiens) [compound 6] , output reported Peptide exchange (MHC class I binding score, peptide exchange yield).
“+++” (≥50 = +++)

Input 80 (QVDEVVDIMRV; listed as Homo sapiens) [compound 80] , output reported Peptide exchange (MHC class I binding score, peptide exchange yield).
“++” (≥20% = ++)

Input 95 (AILDAHIEV; listed as Homo sapiens) [compound 95] , output reported Peptide exchange (MHC class I binding score, peptide exchange yield).
“++++” (≥75% = ++++)

Input 41 (ILDDSFKLL; listed as Homo sapiens) [compound 41] , output reported Peptide exchange (MHC class I binding score, peptide exchange yield).
“++” (≥20% = ++)

Input 84 (SMVEDITGLRL; listed as Homo sapiens) [compound 84] , output reported Peptide exchange (MHC class I binding score, peptide exchange yield).
“+++” (≥50 = +++)

Input 44 (SLESKLTSV; listed as Homo sapiens) [compound 44] , output reported Peptide exchange (MHC class I binding score, peptide exchange yield).
“+++” (≥50 = +++)

Input 176 (RTLDKVLEV; listed as Homo sapiens) [compound 176] , output reported Peptide exchange (MHC class I binding score, peptide exchange yield).
“++” (≥20% = ++)

Input 27 (LLADEDSSYL; listed as Homo sapiens) [compound 27] , output reported Peptide exchange (MHC class I binding score, peptide exchange yield).
“++” (≥20% = ++)

Input 40 (ALSNVIHKV; listed as Homo sapiens) [compound 40] , output reported Peptide exchange (MHC class I binding score, peptide exchange yield).
“++” (≥20% = ++)

Input 146 (ALSDETWGL; listed as Homo sapiens) [compound 146] , output reported Peptide exchange (MHC class I binding score, peptide exchange yield).
“++” (≥20% = ++)

Input 17 (ALAAARVEL; listed as Homo sapiens) [compound 17] , output reported Peptide exchange (MHC class I binding score, peptide exchange yield).
“+++” (≥50 = +++)

Input 136 (KLFDIFSQQV; listed as Homo sapiens) [compound 136] , output reported Peptide exchange (MHC class I binding score, peptide exchange yield).
“+++” (≥50 = +++)

Input 187 (GLHNVVYGI; listed as Homo sapiens) [compound 187] , output reported Peptide exchange (MHC class I binding score, peptide exchange yield).
“+++” (≥50 = +++)
